Source of measurements: paper PMC12864922

Target: TDP-43 (Homo sapiens, UniProt Q13148 1-414)
Sequence (Q13148 whole entry): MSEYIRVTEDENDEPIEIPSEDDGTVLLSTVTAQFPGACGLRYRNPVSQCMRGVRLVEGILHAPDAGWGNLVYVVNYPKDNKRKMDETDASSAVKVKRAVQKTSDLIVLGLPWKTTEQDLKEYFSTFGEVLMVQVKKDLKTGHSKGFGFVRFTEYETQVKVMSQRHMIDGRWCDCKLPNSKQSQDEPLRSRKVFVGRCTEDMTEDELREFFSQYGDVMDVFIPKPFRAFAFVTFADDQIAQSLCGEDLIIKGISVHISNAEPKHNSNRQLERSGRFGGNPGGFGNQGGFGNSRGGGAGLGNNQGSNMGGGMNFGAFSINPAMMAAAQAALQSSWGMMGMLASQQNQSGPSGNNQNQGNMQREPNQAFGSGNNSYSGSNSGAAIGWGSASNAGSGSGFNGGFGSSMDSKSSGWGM
Test: RNA Bind-n-Seq with designed 260-mer pool; 25 mM Tris-HCl, 150 mM KCl, 3 mM MgCl2, BSA (printed 500 mg/mL), 20 units/mL SUPERase IN; pH not stated; 500 nM RNA pool, 1 h, 4 C; TDP-43 5, 50, 500 nM; high values mean tight binding
Conditions: protein: recombinant; tags: SBP (GST cleaved off with PreScission; pGEX-GST-SBP)
In all, about 9,900 sequences were measured (“r (bound/input frequency ratio)”: median about 0.7, highest 2% from about 6.5 on). This excerpt belongs to a sample that is enriched for the highest values.
readout: binding signal

binding signal in this record for ENSMUSG00000090935.112|Synj2bp (ssRNA) RNA: GGGAGUUCUACAGUCCGACGAUCGCUUCGAUAUCCGCAUGCUAGUUCCUGUAGCUAUGGUGCUGCUACCAGUGUUUGCCCUCACCAUGGUAGCAGUUUGGGCCUUCGUGAGAUACCGAAAGCAGCUUUGAAAUGCUUGCUGUCUUCCAGUGUGUCCAAUGAACUCUCUCUCUCACUCACCAUCUCUGACAUCCUCCCAUAUUCUUUCUCCUCCACAUAGCCAAUACAAGAUUUAAAGUGACUGCUUAUCACCCAAAACCCUGCUAUUCAAAAUCUCCUAUUCUAAUGGAAGAGUACAGGGGUUCUCUUGCGGUCGCACUAGUGUGGAAUUCUCGGGUGUCAAGG : 2.02 R (bound/input frequency ratio)

What the record says about ENSMUSG00000029636.271|Wasf3|45:50 (ssRNA) RNA: GGGAGUUCUACAGUCCGACGAUCGCUUCGAUAUCCGCAUGCUAAGUGAAAGCCCAUGUGCAAGCCCCUCCCUACGCCCUGCUUUGGCCACACACUGAGUGCUCUGUGCUGCGCCAUGGCCAUCCUGGAGCCUGCGCACACGUGGCCGCUGCUGUGACUCGCUGUCCUUGGUAAUUGGUGAGAGGCUUUUUCUUUCUUUCUCAGUUCUGCUUUUCCACACUGAGACCCACCAUGUUGACAUCAUCCUCGCGACGUUGACAUUUGAGCCUUUUGUUCUGUCUCCCAUGUGCCCUGUAGAACCCAGCUCUUGCGGUCGCACUAGUGUGGAAUUCUCGGGUGUCAAGG : binding signal is 0.821 R (bound/input frequency ratio)

For this binder ( ENSMUSG00000061578.293|Ksr2 (ssRNA) RNA: GGGAGUUCUACAGUCCGACGAUCGCUUCGAUAUCCGCAUGCUAUAAGCAUCUUAGAGUUUCUCUUUUCUCUUUAAUUGCAUCAGGACCCCUUUGGUCCAUGUACCCCGGUCUCUGUCACAUGCCUUUGUAUCUUGGAGGAAGUAAGAGAGGAGAGAGCCAGGGAGGGCUGAAGCUCUGGGACCCUGAAGUGUCCCCCGGGAACUGGGACUCACUCAUCUUCUCCUGUUUGUAGCUCAAUGACCCAGUGGGUCACAGUUCUAGGCGCUCCAAGGAAGCCAGGGGAGGGGGACUCCUCAGGAAGGCUCUUGCGGUCGCACUAGUGUGGAAUUCUCGGGUGUCAAGG ), measured binding signal is 0.535 R (bound/input frequency ratio)

Recorded binding signal (binder ENSMUSG00000004113.278|Cacna1b|87:91;151:155;229:260 (ssRNA) RNA: GGGAGUUCUACAGUCCGACGAUCGCUUCGAUAUCCGCAUGCUAAAGUCAGGCCCCUGGCUUAGCACUAGAAAAAAUAAAACCUCAUGGCUGCUUUGCAAAGGGAAAACCCAUGCUCAGGAAGGUGUUCACACACCACAGAUAGCUGGGAGGCCACGAGAGAAAGGUUGCACACAGACAGGCAGGCACUCCUUGCACACGUCUCUCUGUUUUGAAACUUCUGAUGACUUCUUGGUGGCUUGUUGUCUUCUACCCCAUGUUUCUCACAGGAUCACACACACACACACACACACACACACACACACCUCUUGCGGUCGCACUAGUGUGGAAUUCUCGGGUGUCAAGG ): 1.82 R (bound/input frequency ratio)
